Tested on: SB.msgc-1
assay explanation: area under the dose-response curve of % viability (trapezoidal, 11 doses) (% viability x log10 concentration); higher = less cytotoxic
measurement setup: SB.msgc-1 (sporadic gastric cancer)
Structures can show the parent of a compound that is named as a salt.
Use Met when the recorded area under the dose-response curve is no lower than 500; use Not met when it is lower.

{"molecule": "OC1=CC2=C(C=C1)C(=O)\\C(=C(O2)\\C3=CC(=C(O)C=C3)O)O [Fisetin] (top concentration 46.0829 µM)", "class name": "Not met"}
{"molecule": "CC1(C)CCC[C@]2(C)[C@H]3CC(=O)O[C@]3(C)CC[C@@H]12 [Sclareolide] (top concentration 46.0829 µM)", "class name": "Met"}
{"molecule": "Cc1cc(Nc2nc(N[C@@H](C)c3ncc(F)cn3)ncc2Cl)n[nH]1 [AZD-1480] (top concentration 46.0829 µM)", "class name": "Not met"}
{"molecule": "CC(C)N[C@@H]1CCn2c(=O)[nH]c3cccc(c32)[C@H]1O [Zilpaterol] (top concentration 46.0829 µM)", "class name": "Not met"}
{"molecule": "Nc1nc(N)nc(-c2cc(Cl)ccc2Cl)n1.O=C(O)/C=C\\C(=O)O [Irsogladine maleate] (top concentration 46.0829 µM)", "class name": "Met"}
{"molecule": "C=CC(=O)Nc1cccc(Nc2nc(NC3CCC(N(C)C)CC3)nc3c2ncn3C(C)C)c1 (stereo not drawn) (top concentration 46.0829 µM)", "class name": "Not met"}
{"molecule": "CCN1CCCC1CNC(=O)c1cc(S(=O)(=O)CC)c(N)cc1OC (stereo not drawn) [Amisulpride] (top concentration 46.0829 µM)", "class name": "Met"}
{"molecule": "O=C(O)CSCC(=O)NC1CCSC1=O (stereo not drawn) [Erdosteine] (top concentration 46.0829 µM)", "class name": "Met"}
{"molecule": "CC1(C)OC/2=C(\\[C@H](NCC3=CC=CC=C3)[C@@H]1O)C(=O)C4=CC=CC=C4C2=O (top concentration 46.0829 µM)", "class name": "Not met"}
{"molecule": "N=C(CCSCc1csc(N=C(N)N)n1)N[S+](N)(=O)[O-] [Famotidine] (top concentration 46.0829 µM)", "class name": "Not met"}
{"molecule": "Nc1cc(c(cc1S(=O)(N)=O)S(N)(=O)=O)C(/Cl)=C(/Cl)Cl [Clorsulon] (top concentration 46.0829 µM)", "class name": "Met"}
{"molecule": "N[S+](=O)([O-])c1cc2c(cc1Cl)NCN[S+]2(=O)[O-] [Hydrochlorothiazide] (top concentration 46.0829 µM)", "class name": "Met"}
{"molecule": "COc1ccc(CC2SC(=O)NC2=O)cc1C(=O)NCc1ccc(C(F)(F)F)cc1 (stereo not drawn) [MK-767] (top concentration 46.0829 µM)", "class name": "Not met"}
{"molecule": "CCCCCNC(=N)N/N=C/c1c[nH]c2ccc(OC)cc12 [Tegaserod maleate] (top concentration 46.0829 µM)", "class name": "Not met"}
{"molecule": "CCCCCCCN(CC)CCCC(O)c1ccc(NS(C)(=O)=O)cc1.CCCCCCCN(CC)CCCC(O)c1ccc(NS(C)(=O)=O)cc1.O=C(O)/C=C/C(=O)O (stereo not drawn) [Ibutilide fumarate] (top concentration 46.0829 µM)", "class name": "Met"}
{"molecule": "C[C@@H](N)c1ccc(C(=O)Nc2ccnc3[nH]ccc23)cc1 (top concentration 46.0829 µM)", "class name": "Not met"}
